Experiment: Human HepG2 cell viability assay in 384 well format
Assay type: toxicity, cell-based
Design: dose 125 nL, time 70.5 hour; concentration not given beside the values
Details: HepG2 cells, read-out: Inhibition
Recorded cytotoxicity at 70.5 h by entry
Answer format: numeric, % implied, no suffix.

Example results:
- c1cnc(N2CCCC(c3csc(Nc4cnccn4)n3)C2)nc1 (stereo not drawn): 19.8
- CCNc1c(NC(=O)NC(C)C)c(=O)oc2ccccc12: -8.94
- COc1ccc(OC)c([C@@H]2N[C@H](c3nccs3)Cc3ccsc32)c1: -11.6
- Cc1csc(C(=O)N2CCC(S(C)(=O)=O)CC2)c1: -5.62
- CN1CCC(c2cccc(-c3ccc(C(=O)O)cc3)n2)CC1: -2.41

Input: Name the reported cytotoxicity at 70.5 h value associated with the compound CC(C)(C)NS(=O)(=O)c1ccc(NC(=O)C2CC2)cc1
Output: 7.98

Input: Name the reported cytotoxicity at 70.5 h value associated with the compound NC(=O)CN1CCC(c2noc3cc(F)ccc23)CC1
Output: 39.4

Input: Name the reported cytotoxicity at 70.5 h value associated with the compound Clc1ccc(CN2CCc3c(ncn3C3CC3)C2)c2ncccc12
Output: -2.64

Input: Name the reported cytotoxicity at 70.5 h value associated with the compound CS(=O)(=O)N1CCN(Cc2c(O)ccc3oc4c(c23)CCCC4)CC1
Output: -10.3

Input: Name the reported cytotoxicity at 70.5 h value associated with the compound CCCN(Cc1cnc2ccccc2n1)Cc1ccccc1OC
Output: -7.09
